Test: yeast display, Sf9 membrane polyspecificity reagent, FACS + sequencing; frameworks hold sequencing errors
attribute measured: polyreactivity (PSR sort gate)

[
  {
    "sequence code": "QVQLVESGGGLVQAGGSLRLSCAASGSTFYGNAMGWYRQAPGKERELVAAITWGDASTYYADSVKGRFTISRDNAKNTVYLQMNSLKPEDTAVYYCAADFYYAYYWGQGTQVTVSS",
    "attribute measured": "polyreactivity (PSR sort gate)",
    "measured": "low polyreactivity"
  },
  {
    "sequence code": "QVQLVESGGGLVQAGGSLRLSCAASGFTFFNYAMAWYRQAPGKERELVAAISSNGGRTYYADSVKGRFTISRDNAKNTVYLQMNSLKPEDTAVYYCATLYYGRVDYDYWGQGTQVTVSS",
    "attribute measured": "polyreactivity (PSR sort gate)",
    "measured": "high polyreactivity"
  },
  {
    "sequence code": "QVHLVESGGGLVQAGGSLRLSCAASGRTFKYNTMGWYRQAPGKERELVAVISRSGGRTYYADSVKGRFTISRDNAKNTVYFQMNSLKPEDTAVYYCAKGIPYSDPQSAYDDYWGQGTQVTVSS",
    "attribute measured": "polyreactivity (PSR sort gate)",
    "measured": "high polyreactivity"
  },
  {
    "sequence code": "QVQLVESGGGLVQAGGSLRLSCAASGSISKINAMGWYRQAPGKERELVAAINTGDSTYYADSVKGRFTISRDNAKNTVYLQMNSLKPEDTAVYYCATVVYTWFLAEEDDYCGQGTQVTVSS",
    "attribute measured": "polyreactivity (PSR sort gate)",
    "measured": "low polyreactivity"
  },
  {
    "sequence code": "QVQLVESGRGLVQEGGSLRLSCASSGSTFKVYAMGWYRQAPGKERELVAAISQSGGSTYYADSVKGRFTISRDNAKNTVYIQMNSLKPEDTAVYYCAVRTYVYNWSFSSLPYDYWGQGTQVTVSS",
    "attribute measured": "polyreactivity (PSR sort gate)",
    "measured": "high polyreactivity"
  }
]

Name the reported polyreactivity (PSR sort gate) value associated with the sequence "QVQLVESGGGLVQAGGSLRLSCAASGNIFDLYAMGWYRQAPGKERELVAAITRSSSRTYYADSVKGRFTISRDNAKNTVYLQMNSLKPEDTAVYYCRAKQVNRFDYWGQGTKVTVSS"
high polyreactivity

Name the reported polyreactivity (PSR sort gate) value associated with the sequence "QDQLVESGGGLVQAGGNLRLSCAASGRIYRYYAMGWYRQAPGKERELVATITLNTVSTYYADSVKGRFTISRDNAKNTVYVQKNSRTPEDTAVYYCAAGAVRFGAGYSRYWEDDYWGQGTQVTVSS"
high polyreactivity

Name the reported polyreactivity (PSR sort gate) value associated with the sequence "QVQLVESGVVLVQAGGSLRLSCAASGSIFAGYVMGWYRQAPGKERELVASISSGTGTYYADSVKGRFTISRDNAKNTVYLQMNSLKPEDTAVYYCAAECYRTVQFIRSRWSYTYDYWGQGTQVTVSS"
low polyreactivity
